# credit: patent US20160221965A1

system_under_test: murine CCR2 (Mus musculus, UniProt P51683)
Construct: host or cells: U2OS β-arrestin cell line
Sequence (P51683 whole entry): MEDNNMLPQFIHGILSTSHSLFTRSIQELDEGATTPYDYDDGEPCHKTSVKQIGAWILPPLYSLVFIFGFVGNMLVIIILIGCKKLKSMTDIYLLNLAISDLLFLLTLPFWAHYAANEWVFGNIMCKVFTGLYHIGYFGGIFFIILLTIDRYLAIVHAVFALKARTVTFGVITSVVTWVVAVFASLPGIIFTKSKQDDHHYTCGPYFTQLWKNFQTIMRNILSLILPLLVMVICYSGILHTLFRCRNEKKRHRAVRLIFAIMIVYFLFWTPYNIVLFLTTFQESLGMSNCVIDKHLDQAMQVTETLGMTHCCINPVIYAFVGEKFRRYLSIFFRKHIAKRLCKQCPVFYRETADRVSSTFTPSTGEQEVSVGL
protocol_description: Functional β-arrestin recruiting test with murine MCP-1 (B-2b)
Format: cell-based
condition_notes: U2OS β-arrestin cell line transfected with murine CCR2; agonist murine MCP-1
Description: The antagonistic action of test substances on CCR2 was determined in a β-arrestin test. The PathHunter β-arrestin GPCR test system (DiscoveRx Corporation, Ltd.) is a cell-based functional method for detecting binding of β-arrestin to an activated receptor. The molecular basis is a β-galactosidase complementation measured by the enzymatic conversion of a chemiluminescent substrate. […]
pIC50: −log10 of the molar value.
outcome_measure: pIC50

| compound | pIC50 |
| --- | --- |
| Nc1nc(C(F)(F)F)c(Oc2ccc(C(F)(F)F)cc2)c(=O)[nH]1 [Example 74] | 5.38 |
| Cc1ccc(Oc2c(C(F)(F)F)nc(N)[nH]c2=O)cc1Cl [Example 71] | 5.76 |
| Nc1nc(C(F)(F)F)c(Oc2ccc(Cl)c(OC(F)(F)F)c2)c(=O)[nH]1 [Example 57] | 5.64 |
| Nc1nc(C(F)(F)F)c(Oc2ccc(Cl)c(C(F)(F)F)c2)c(=O)[nH]1 [Example 2] | 7.16 |
| O=c1[nH]c(C2CCC2)nc(C(F)(F)F)c1Oc1ccc(Cl)c(Cl)c1 [Example 69] | 6.28 |

P = Nc1nc(C(F)(F)F)c(S(=O)(=O)c2ccc(Cl)c(Cl)c2)c(=O)[nH]1 [Example 63]
Q = Nc1nc(C(F)(F)F)c(Cc2cnc(Cl)c(Cl)c2)c(=O)[nH]1 [Example 59]
R = Cc1cc(Oc2c(C(F)(F)F)nc(N)[nH]c2=O)ccc1Cl [Example 72]
**Query** hey, can you rank those compounds up there by pIC50? biggest number first please Would you mind listing the labels in the order asked for?
**Result** R, P, Q
(R: 6.26, P: 5.66, Q: 5.14)

1 = Nc1nc(C(F)(F)F)c(Oc2cccc(C(F)(F)F)c2)c(=O)[nH]1 [Example 75]
2 = Nc1nc(C(F)(F)F)c(Cc2ccc(Cl)nc2)c(=O)[nH]1 [Example 58]
**Query** Param pair: 1 , 2 . Output: the one whose pIC50 is numerically greater. Mark your selection by writing its label.
**Result** 1

a = Nc1nc(C(F)(F)F)c(Oc2ccc(Cl)cc2)c(=O)[nH]1 [Example 73]
b = CC(c1ccc(Cl)c(Cl)c1)c1c(C(F)(F)F)nc(N)[nH]c1=O (centres unmarked) [Example 70]
c = Nc1nc(C(F)(F)F)c(Cc2ccc(Cl)c(Cl)c2)c(=O)[nH]1 [Example 1]
d = CNc1nc(C(F)(F)F)c(Oc2ccc(Cl)c(Cl)c2)c(=O)[nH]1 [Example 66]
e = Nc1nc(C(F)(F)F)c([S+]([O-])c2ccc(Cl)c(C(F)(F)F)c2)c(=O)[nH]1 (centres unmarked) [Example 60]
**Query** Form: Sort by [pIC50] Order [ ascending ] Would you mind listing the labels in the order asked for?
**Result** b, a, e, d, c
(b: 5.43, a: 5.64, e: 5.84, d: 6.30, c: 6.51)

1 = CCNc1nc(C(F)(F)F)c(Oc2ccc(Cl)c(Cl)c2)c(=O)[nH]1 [Example 64]
2 = Nc1nc(C(F)(F)F)c(Oc2ccc(Cl)c(Cl)c2)c(=O)[nH]1 [Example 3]
**Query** Param pair: 1 , 2 . Output: the one whose pIC50 is numerically greater. Mark your selection by writing its label.
**Result** 2
(2: 6.55, 1: 5.57)

A = Nc1nc(C(F)(F)F)c(S(=O)(=O)c2ccc(Cl)c(C(F)(F)F)c2)c(=O)[nH]1 [Example 61]
B = CC(C)Nc1nc(C(F)(F)F)c(Oc2ccc(Cl)c(Cl)c2)c(=O)[nH]1 [Example 65]
**Query** Param pair: A , B . Output: the one whose pIC50 is numerically greater. Mark your selection by writing its label.
**Result** B
(B: 5.79, A: 5.53)
